Molecular target: Cv5-HT7 (Calliphora vicina)
Test: cAMP-dependent CNG channel Ca2+ influx (Fluo-4) in Cv5-HT7-expressing flpTM cells, agonists
Type: cell-based
Conditions: Fluo-4 signal, Cv5-HT7-expressing flpTM cells, 100 µM IBMX; read-out: Cv5-HT7 EC50
pEC50: −log10 of the molar value.
recorded-metric: pEC50

compound=Cc1nn(C)c(C)c1-c1cccc2c1CC[C@H](N(C)C)C2 measured_number=6.52
compound="CCN(CC)C(=O)N[C@H]1C=C2c3cccc4[nH]cc(c34)C[C@H]2N(C)C1 [R(+)-lisuride]" measured_number=8.70
compound="NCCc1c[nH]c2ccc(O)cc12 [5-HT, 5-hydroxytryptamine]" measured_number=8.40
compound=NCCc1c[nH]c2ccc(C(N)=O)cc12 measured_number=6.37
compound="CCCN(CCC)C1CCc2cccc(O)c2C1 (racemic)" measured_number=5.10

* * *

// reported IC50 per item
Target: UniProtKB I7IA71
Test: Inhibition of 5-HT-induced Fluo-4 signals in Cv5-HT7-expressing cells
Assay type: cell-based
Details: in the presence of 6 nM 5-HT; read-out: Cv5-HT7 log IC50 (converted)
Counter-ions that a name gives are not always drawn.
recorded-metric: IC50

compound="O=C(c1ccc(F)cc1)C1CCN(CCn2c(=O)[nH]c3ccccc3c2=O)CC1 [ketanserin]" result="1450 nM"
compound="CN(C)CCCSc1ccccc1NC(=O)/C=C/c1ccccc1 [cinanserin, cinanserin hydrochloride]" result="398 nM"
compound="O=C(CCCN1CCC2(CC1)C(=O)NCN2c1ccccc1)c1ccc(F)cc1 [spiperone]" result="275 nM"
compound="Cc1ccc(N(CC2=NCCN2)c2cccc(O)c2)cc1 [phentolamine]" result="4680 nM"

* * *

Biological target: Cv5-HT7 (Calliphora vicina, UniProt I7IA71)
Sequence (I7IA71 entry or part of it): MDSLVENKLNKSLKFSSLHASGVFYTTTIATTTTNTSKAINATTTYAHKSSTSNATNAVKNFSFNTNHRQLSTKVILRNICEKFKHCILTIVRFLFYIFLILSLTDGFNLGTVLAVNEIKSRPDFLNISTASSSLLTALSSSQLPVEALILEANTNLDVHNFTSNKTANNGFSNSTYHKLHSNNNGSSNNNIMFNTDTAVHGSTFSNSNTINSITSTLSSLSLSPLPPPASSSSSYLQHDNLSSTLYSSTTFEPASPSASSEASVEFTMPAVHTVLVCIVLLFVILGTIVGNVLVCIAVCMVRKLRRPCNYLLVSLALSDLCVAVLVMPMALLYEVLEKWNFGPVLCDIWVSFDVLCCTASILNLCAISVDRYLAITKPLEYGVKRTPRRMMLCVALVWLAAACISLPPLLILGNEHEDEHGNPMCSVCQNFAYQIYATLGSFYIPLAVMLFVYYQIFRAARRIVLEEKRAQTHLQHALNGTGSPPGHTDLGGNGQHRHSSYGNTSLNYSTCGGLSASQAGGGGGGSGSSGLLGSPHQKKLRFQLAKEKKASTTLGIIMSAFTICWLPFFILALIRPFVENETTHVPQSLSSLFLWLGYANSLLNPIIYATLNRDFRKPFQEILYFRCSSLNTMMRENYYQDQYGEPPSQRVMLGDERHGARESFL
Assay: cAMP-dependent CNG channel Ca2+ influx (Fluo-4) in Cv5-HT7-expressing flpTM cells, agonists
Assay type: cell-based
Settings: Cv5-HT7 EC50, Fluo-4 signal, Cv5-HT7-expressing flpTM cells, 100 µM IBMX
pEC50: −log10 of the molar value.
recorded-metric: pEC50

compound="CC[C@@H](CO)NC(=O)[C@@H]1C=C2c3cccc4c3c(cn4C)C[C@H]2N(C)C1 [methysergide]" recorded_metric=pEC50 measured_number=6.11
compound=COc1ccc2[nH]cc(CCN)c2c1 recorded_metric=pEC50 measured_number=6.02

* * *

Target: Cv5-HT7 (Calliphora vicina, UniProt I7IA71)
Assay: Inhibition of 5-HT-induced Fluo-4 signals in Cv5-HT7-expressing cells
Assay type: cell-based
Conditions: Cv5-HT7 log IC50, in the presence of 6 nM 5-HT
pIC50: −log10 of the molar value.
recorded-metric: pIC50

cpd_smiles=COC(=O)[C@@H]1[C@H]2C[C@H]3c4[nH]c5ccccc5c4CCN3C[C@@H]2CC[C@@H]1O measured_number=3.72

* * *

// reported pIC50 per item
Molecular target: Cv5-HT2α (Calliphora vicina)
Sequence (I7JA47 entry or part of it): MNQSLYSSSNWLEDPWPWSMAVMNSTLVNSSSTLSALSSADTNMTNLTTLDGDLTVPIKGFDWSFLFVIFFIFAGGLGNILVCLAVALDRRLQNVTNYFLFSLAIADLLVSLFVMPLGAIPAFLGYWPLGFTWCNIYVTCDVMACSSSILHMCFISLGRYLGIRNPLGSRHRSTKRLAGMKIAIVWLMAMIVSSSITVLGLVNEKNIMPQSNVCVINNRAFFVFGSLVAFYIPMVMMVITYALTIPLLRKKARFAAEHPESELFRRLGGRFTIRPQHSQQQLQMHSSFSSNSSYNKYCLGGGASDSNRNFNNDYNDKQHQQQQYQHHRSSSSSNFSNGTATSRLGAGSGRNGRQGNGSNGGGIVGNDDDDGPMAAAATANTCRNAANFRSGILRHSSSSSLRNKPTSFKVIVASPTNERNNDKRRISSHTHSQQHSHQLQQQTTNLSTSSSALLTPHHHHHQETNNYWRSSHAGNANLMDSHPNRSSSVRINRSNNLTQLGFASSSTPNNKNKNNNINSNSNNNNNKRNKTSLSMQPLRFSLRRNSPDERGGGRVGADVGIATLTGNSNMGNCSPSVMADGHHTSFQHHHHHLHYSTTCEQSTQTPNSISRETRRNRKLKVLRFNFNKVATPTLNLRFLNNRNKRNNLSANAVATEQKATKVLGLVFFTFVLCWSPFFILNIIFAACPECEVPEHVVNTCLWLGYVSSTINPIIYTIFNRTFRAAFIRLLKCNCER
Assay: Inhibition of 5-HT-induced Ca2+ signals in Cv5-HT2α-expressing cells
Type: cell-based
Conditions: Cv5-HT2α log IC50, in the presence of 100 nM 5-HT
pIC50: −log10 of the molar value.
recorded-metric: pIC50

compound=COC(=O)[C@@H]1[C@H]2C[C@H]3c4[nH]c5ccccc5c4CCN3C[C@@H]2CC[C@@H]1O measured_number=5.54
compound="CC[C@@H](CO)NC(=O)[C@@H]1C=C2c3cccc4c3c(cn4C)C[C@H]2N(C)C1 [methysergide]" measured_number=4.71

Sourced from paper PMC3493529
